The origin of these recorded values is ChEMBL document CHEMBL3585299.

molecular target: Nuclear receptor ROR-gamma (Homo sapiens) (UniProt P51449); assay: Inverse agonist activity at human ROR-gamma1 transfected in HEK293 cells at 10 uM after 16 hrs by luciferase reporter gene assay relative to control; assay type: cell-based
Sequence (P51449 whole entry): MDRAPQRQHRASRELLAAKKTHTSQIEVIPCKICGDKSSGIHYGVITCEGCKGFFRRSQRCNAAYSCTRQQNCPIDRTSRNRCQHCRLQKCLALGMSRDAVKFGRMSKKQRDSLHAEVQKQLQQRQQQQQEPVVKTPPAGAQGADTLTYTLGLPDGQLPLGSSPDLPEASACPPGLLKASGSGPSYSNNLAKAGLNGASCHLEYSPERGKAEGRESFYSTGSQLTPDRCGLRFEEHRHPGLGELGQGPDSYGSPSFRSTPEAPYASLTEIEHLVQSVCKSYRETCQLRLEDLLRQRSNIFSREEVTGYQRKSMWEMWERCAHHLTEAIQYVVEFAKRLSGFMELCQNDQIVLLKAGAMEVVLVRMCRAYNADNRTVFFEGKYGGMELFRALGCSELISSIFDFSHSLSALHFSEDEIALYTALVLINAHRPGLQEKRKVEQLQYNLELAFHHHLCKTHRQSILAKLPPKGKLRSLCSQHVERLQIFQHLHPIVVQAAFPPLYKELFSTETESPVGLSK
In this section we review reported inhibition values for a set of compounds.

CCCCn1c(=O)c2ccccc2c2cc(CC)ccc21 | 37%

INPUT: # get_value(readout= inhibition, system= Nuclear receptor ROR-gamma (Homo sapiens) (UniProt P51449)) for CCCC[Si]1(CCCC)c2ccccc2-c2cc(C(C)O)ccc21 (stereo not given)
OUTPUT: < 5%

INPUT: # get_value(readout= inhibition, system= Nuclear receptor ROR-gamma (Homo sapiens) (UniProt P51449)) for CCCC[Si]1(CCCC)c2ccccc2-c2cc(CC)ccc21
OUTPUT: 18%

INPUT: # get_value(readout= inhibition, system= Nuclear receptor ROR-gamma (Homo sapiens) (UniProt P51449)) for CCCC[Si]1(CCCC)c2ccccc2-c2cc(C(C)=O)ccc21
OUTPUT: < 5%

INPUT: # get_value(readout= inhibition, system= Nuclear receptor ROR-gamma (Homo sapiens) (UniProt P51449)) for CCCC[Si]1(CCCC)c2ccccc2-c2ccccc21
OUTPUT: 13%
